Measured melting point, listed per entry for reference.

See these solved cases before continuing.
# smi, melting point
measured = [
    ("Cc1cc2c(cc1C)-n1c(n[nH]c1=O)C=C(c1ccc(-n3c(C)nc4cnccc43)cc1)N2", "> 325 °C"),
    ("O=C(c1ccc(F)cc1)C1CCN(Cc2ccc3ccccc3c2)CC1", "131 to 134 °C"),
    ("O=c1nc(Cc2ccccc2)nc2n(C3CCCC3)[nH]c(Cc3ccccc3)c1-2", "204 to 206 °C"),
    ("CCCCCCCCCCCCC1=C(OC(C)=O)C(=O)c2c(C)cccc2C1=O", "69 to 74 °C"),
]

In the following, a different molecule is considered.
Entry "COc1ccc(C)cc1NC(=O)Nc1ccc2c(c1)CCN(C(=O)Oc1ccc(CCO)cc1Cl)C2" , melting point reported as 95 to 98 °C

====

Measured melting point, listed per entry for reference.

See these solved cases before continuing.
# compound, melting point
records = [
    ("N[C@H](C(=O)O)c1ccc(OCCOC2CCCCC2)cc1", "219 to 220 °C"),
    ("Cc1oc(-c2ccccc2)nc1CCOc1ccc(C[C@@H](C(=O)O)N2CCN(S(=O)(=O)c3ccccc3F)CC2)cc1", "170 to 172 °C"),
]

Entry O=C(O)C1Cc2cc(O)c(O)cc2CN1 (stereo not given) , melting point reported as 288 °C

Entry "Cc1oc(C)c(C(=O)O)c1C(=O)O" , melting point reported as 232 to 235 °C

Entry "COc1ccc(CN(CCN(C)CCCCNC(=O)NCCCOc2cccc(CN3CCCCC3)c2)c2ccccn2)cc1" , melting point reported as 68 to 72 °C

Entry CNC(=O)C1=CC(C)(CF)Oc2ccc([N+](=O)[O-])cc21 (stereo not given) , melting point reported as 171 to 173 °C

Entry CCOP(=O)(COCC(O)COn1cnc2c(N)ncnc21)OCC (stereo not given) , melting point reported as 84 to 85 °C

Entry O=C(O)C1CCCN(C(=O)COC2CCN(C(=O)OCc3ccccc3)CC2)C1 (stereo not given) , melting point reported as 102 to 104 °C

Entry "COc1ccc(CN2C(=O)CC(C)(C)c3cc(Br)ccc32)cc1" , melting point reported as 118 to 119 °C

Entry "CN(OCc1ccccc1)C(=O)Nc1cccc(S(C)(=O)=O)c1" , melting point reported as 110 to 111 °C

====

parameterMeasured: melting point

See these solved cases before continuing.
# compound, melting point
records = [
    ("COCCO[C@@H]1c2ccn3c(C)c(C)nc3c2N[C@H](c2ccccc2)[C@H]1OC(=O)CCCCBr", "98.6 °C"),
    ("CC(C)(C)OC(=O)N1CCC(CN2C(=O)C3(COc4cc5c(cc43)CCO5)c3ccccc32)CC1 (stereo not given)", "96 to 98 °C"),
    ("O=C(CCN1CCN(c2ccnc3ccccc23)CC1)c1csc2ccccc12", "134 to 136 °C"),
    ("CSC(=CC(=O)c1ccccc1Br)N1CCN2CCC1CC2", "107 to 108 °C"),
    ("COc1ccc(C(=O)Nc2ccccc2)cc1NS(=O)(=O)c1ccc(Cl)c(Cl)c1", "191 to 193 °C"),
    ("CC1CCC(C(C)C)C(OC(=O)C2(CC(N)=O)C(=O)N(Cc3ccc(Br)cc3F)C(=O)c3cccn32)C1 (stereo not given)", "122 to 123 °C"),
    ("CC1(C)C=C(c2ccccn2)c2cc(Cl)cc(Cl)c2OC1", "124 °C"),
    ("O=C(O)c1ccccc1-c1cc(-c2ccc(Cl)cc2)on1", "174 to 176 °C"),
    ("CCOC(=O)c1ccc(NCCCOc2ccc(Cl)cc2)cc1", "87 to 88 °C"),
    ("Cc1cc(-n2ccnc2)c2cccc(OCc3c(Cl)ccc(S(=O)(=O)N4CCC[C@H]4C(=O)N(C)CCN(C)CCCCO)c3Cl)c2n1", "84 °C"),
]

Entry Nc1ncnc2c(C3OC(CO)C(O)C3O)[nH]nc12 (stereo not given) , melting point reported as 141 to 142 °C

Entry "NC(=O)c1c(Cl)c(Cl)c(Cl)c(Cl)c1C(=O)O" , melting point reported as 113 to 114 °C

Entry "C=CCn1c(CC)nc2nc3cc(Cl)ccc3nc21" , melting point reported as 117 to 121 °C
